Data provenance: patent US20040248898A1

biological target: human group V sPLA2 (Homo sapiens); construct: made in house; host or cells: CHO cells, stably transfected (pSVL vector); culture supernatant used; test: Chromogenic assay for inhibitory activity, group V sPLA2 inhibition tests; type: biochemical; conditions: diheptanoyl thio PC 1 mM, 40° C., 45 minutes, absorbance at 405 nm; read-out: IC50 group V sPLA2 inhibition
Sequence (P39877 21-138): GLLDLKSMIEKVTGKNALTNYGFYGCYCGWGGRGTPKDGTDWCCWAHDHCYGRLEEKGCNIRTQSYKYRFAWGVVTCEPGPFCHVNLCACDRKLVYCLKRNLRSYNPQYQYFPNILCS
pIC50: −log10 of the molar value.
endpoint_name: pIC50

Past entries and their recorded results:
compound: NC(=O)C1=CCCc2c1c1c(OCC(=O)O)cccn1c2Cc1ccccc1 [Compound 7]
endpoint_name: pIC50
readout_value: 8.70
--
compound: CCc1c(C(=O)C(N)=O)c2c(OCC(=O)O)nc(C)cn2c1Cc1ccccc1Cc1ccccc1 [Compound 2]
endpoint_name: pIC50
readout_value: 7.89

(1) NC(=O)c1cccc2c1c1c(OCC(=O)O)ccc(F)c1n2Cc1ccccc1 [Compound 10]
(2) CCc1c(C(=O)C(N)=O)c2c(OCC(=O)O)nc(C)cn2c1Cc1cccc(-c2ccccc2)c1 [Compound 1]
In: Field: entry with larger pIC50 (options 1 / 2 ). Mark your answer with the label of the selected entry.
Out: 1

(a) NC(=O)c1cccc2c1c1c(OCC(=O)O)cccc1n2Cc1cccc(Oc2ccccc2)c1 [Compound 9]
(b) CCc1ccc(-c2ccccc2Cc2c(CC)c(C(=O)C(N)=O)c3c(OCC(=O)O)nc(C)cn23)s1 [Compound 21]
(c) CCc1c(C(=O)C(N)=O)c2c(OCC(=O)O)nc(C)cn2c1Cc1ccccc1-c1ccc(C)s1 [Compound 22]
(d) NC(=O)c1cccc2c1c1c(OCC(=O)O)cc(-c3ccco3)cc1n2Cc1ccccc1 [Compound 11]
In: Order the items by recorded pIC50; the first position goes to the largest value. List the labels in the requested order.
Out: a, d, b, c

(1) NC(=O)c1cccc2c1c1c(OCC(=O)O)cccc1n2CC1CCCCC1 [Compound 8]
(2) NC(=O)c1cccc2c1c1c(OCC(=O)O)cccc1n2Cc1ccccc1 [Compound 23]
(3) CCc1c(C(=O)C(N)=O)c2c(OCC(=O)O)nc(-c3ccccc3)cn2c1Cc1ccccc1 [Compound 3]
In: Order the items by recorded pIC50; the first position goes to the largest value. List the labels in the requested order.
Out: 1, 3, 2
(1: 8.52, 3: 8.30, 2: 8.10)

====

molecular target: human group X sPLA2 (Homo sapiens, UniProt O15496); test: Chromogenic assay for inhibitory activity, group X sPLA2 inhibition tests; format: biochemical; parameters: made in house; host or cells: CHO cells, stably transfected (pSVL vector); culture supernatant used; settings: diheptanoyl thio PC 1 mM, 40° C., 30 minutes, absorbance at 405 nm; read-out: IC50 group X sPLA2 inhibition
Sequence (O15496 43-165): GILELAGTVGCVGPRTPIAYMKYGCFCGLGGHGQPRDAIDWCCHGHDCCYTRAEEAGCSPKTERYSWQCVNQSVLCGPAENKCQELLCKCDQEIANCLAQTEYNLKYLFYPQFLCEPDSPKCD
pIC50: −log10 of the molar value.
endpoint_name: pIC50

compound: NC(=O)c1cccc2c1c1c(OCC(=O)O)cccc1n2Cc1cccc(Oc2ccccc2)c1
pIC50: 7.89
--
compound: CCc1c(CC(N)=O)c2c(OCC(=O)O)nc(C)cn2c1Cc1ccc(F)cc1
pIC50: 7.72
--
compound: CCCc1c(C(=O)C(N)=O)c2c(OCC(=O)O)nc(C)cn2c1Cc1ccc(F)cc1
pIC50: 7.77

====

target: UniProtKB O15496; assay: Chromogenic assay for inhibitory activity, group X sPLA2 inhibition tests; format: biochemical; design: made in house; host or cells: CHO cells, stably transfected (pSVL vector); culture supernatant used
endpoint_name: IC50 (nM)
Give the value, in units of nM, as a plain number.

In: Requested field: IC50. Item: CCc1c(C(=O)C(N)=O)c2c(OCC(=O)O)cccc2n1Cc1ccccc1-c1ccccc1
Out: 26

====

target: human group X sPLA2 (Homo sapiens, UniProt O15496); test: Chromogenic assay for inhibitory activity, group X sPLA2 inhibition tests; type: biochemical; set-up: made in house; host or cells: CHO cells, stably transfected (pSVL vector); culture supernatant used; conditions: diheptanoyl thio PC 1 mM, 40° C., 30 minutes, absorbance at 405 nm; read-out: IC50 group X sPLA2 inhibition
pIC50: −log10 of the molar value.
endpoint_name: pIC50

compound: CCc1c(C(=O)C(N)=O)c2c(OCC(=O)O)nc(C)cn2c1Cc1ccccc1C1CCCC1
study_target: human group X sPLA2 (Homo sapiens, UniProt O15496)
pIC50: 8.05

(I) CCc1c(C(=O)C(N)=O)c2c(OCC(=O)O)nc(C)cn2c1Cc1ccc(-c2ccccc2)cc1
(II) NC(=O)c1cccc2c1c1c(OCC(=O)O)cccc1n2CC1CCCCC1
In: Returns the identifier with the smallest measured pIC50 among I and II . Mark your answer with the label of the selected entry.
Out: I
(I: 7.80, II: 8.52)
